Experiment: in vitro
Details: dog, mdck
endpoint: MCC

Exam item: # input compound: Nc1nc2c(ncn2C2CC2C(O)CO)c(=O)[nH]1 (stereo not shown) [Example 3G] ; wanted: its MCC
Marked response: > 320 µg/mL

====

# Lookup of reported MCC keyed by entry
Assay: Drug cytotoxicity in Vero host cells (cytotoxicity controls of the CPE-inhibition assay)
Conditions: african green monkey, vero cells

[[record]]
compound = "Nc1nc2c(ncn2C2CC2C(O)CO)c(=O)[nH]1 (centres unmarked) [Example 3G]"
value_observed = "> 320 µg/mL"


Continue with the next compound.
Exam item: # input compound: Nc1nc2c(ncn2C2CC2CCO)c(=O)[nH]1 (centres unmarked) [Example 2E] ; wanted: its MCC
Marked response: > 320 µg/mL

Source: patent US4988703A
